# maps each entry to its pIC50
Test system: PSN-1 pancreatic cancer cells
Assay: MTT cytotoxicity test, 72 h
Assay type: cell-based, human
Settings: read-out: IC50 PSN-1 pancreas
pIC50: −log10 of the molar value.

>  <molecule>
[NH2][Pt]([NH2])([Cl])([Cl])([O]C(=O)CCCc1ccccc1)[O]C(=O)C(Cl)Cl [CPD, ctc-[Pt(NH3)2(PhB)(DCA)Cl2]]

>  <pIC50>
7.00

$$$$
>  <molecule>
[NH2][Pt]([NH2])([Cl])[Cl] [CDDP, Cisplatin]

>  <pIC50>
4.74

$$$$
>  <molecule>
O=C1[O][Pt]2([NH][C@@H]3CCCC[C@H]3[NH]2)[O]C1=O [OXP, oxaliplatin]

>  <pIC50>
5.08

$$$$
